# system name: VLA-4/CS-1 (Homo sapiens, UniProt P05556+P13612)
# Construct: inflammatory cells that contain the VLA-4 receptor [Jurkat cells; host or cells: Jurkat (human T lymphoblastic line)
# Sequence (P13612 34-1032): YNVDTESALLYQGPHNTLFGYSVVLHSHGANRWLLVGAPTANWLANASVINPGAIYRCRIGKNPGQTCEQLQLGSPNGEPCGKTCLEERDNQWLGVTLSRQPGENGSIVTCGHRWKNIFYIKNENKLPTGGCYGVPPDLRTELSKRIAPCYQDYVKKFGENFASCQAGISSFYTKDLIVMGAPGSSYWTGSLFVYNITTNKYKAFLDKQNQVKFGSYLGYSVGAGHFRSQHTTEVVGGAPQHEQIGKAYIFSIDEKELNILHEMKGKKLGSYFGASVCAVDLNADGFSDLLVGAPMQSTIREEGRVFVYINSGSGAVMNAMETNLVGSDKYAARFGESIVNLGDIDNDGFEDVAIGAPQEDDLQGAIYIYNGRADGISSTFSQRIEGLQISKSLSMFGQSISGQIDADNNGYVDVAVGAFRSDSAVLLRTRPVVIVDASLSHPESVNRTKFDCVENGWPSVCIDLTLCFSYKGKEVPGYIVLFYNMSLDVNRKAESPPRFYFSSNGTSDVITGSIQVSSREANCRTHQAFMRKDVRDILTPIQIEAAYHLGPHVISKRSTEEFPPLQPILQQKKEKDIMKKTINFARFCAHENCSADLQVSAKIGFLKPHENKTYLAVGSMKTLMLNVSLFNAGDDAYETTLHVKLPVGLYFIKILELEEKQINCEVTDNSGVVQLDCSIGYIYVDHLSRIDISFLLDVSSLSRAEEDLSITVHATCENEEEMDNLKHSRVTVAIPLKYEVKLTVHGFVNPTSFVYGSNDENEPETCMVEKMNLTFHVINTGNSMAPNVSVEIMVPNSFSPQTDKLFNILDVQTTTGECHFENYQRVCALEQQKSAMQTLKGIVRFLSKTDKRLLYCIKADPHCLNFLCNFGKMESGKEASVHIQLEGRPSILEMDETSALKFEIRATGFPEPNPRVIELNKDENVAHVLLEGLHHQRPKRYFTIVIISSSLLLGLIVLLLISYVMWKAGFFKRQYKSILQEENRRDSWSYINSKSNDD
# Sequence (P05556 21-798): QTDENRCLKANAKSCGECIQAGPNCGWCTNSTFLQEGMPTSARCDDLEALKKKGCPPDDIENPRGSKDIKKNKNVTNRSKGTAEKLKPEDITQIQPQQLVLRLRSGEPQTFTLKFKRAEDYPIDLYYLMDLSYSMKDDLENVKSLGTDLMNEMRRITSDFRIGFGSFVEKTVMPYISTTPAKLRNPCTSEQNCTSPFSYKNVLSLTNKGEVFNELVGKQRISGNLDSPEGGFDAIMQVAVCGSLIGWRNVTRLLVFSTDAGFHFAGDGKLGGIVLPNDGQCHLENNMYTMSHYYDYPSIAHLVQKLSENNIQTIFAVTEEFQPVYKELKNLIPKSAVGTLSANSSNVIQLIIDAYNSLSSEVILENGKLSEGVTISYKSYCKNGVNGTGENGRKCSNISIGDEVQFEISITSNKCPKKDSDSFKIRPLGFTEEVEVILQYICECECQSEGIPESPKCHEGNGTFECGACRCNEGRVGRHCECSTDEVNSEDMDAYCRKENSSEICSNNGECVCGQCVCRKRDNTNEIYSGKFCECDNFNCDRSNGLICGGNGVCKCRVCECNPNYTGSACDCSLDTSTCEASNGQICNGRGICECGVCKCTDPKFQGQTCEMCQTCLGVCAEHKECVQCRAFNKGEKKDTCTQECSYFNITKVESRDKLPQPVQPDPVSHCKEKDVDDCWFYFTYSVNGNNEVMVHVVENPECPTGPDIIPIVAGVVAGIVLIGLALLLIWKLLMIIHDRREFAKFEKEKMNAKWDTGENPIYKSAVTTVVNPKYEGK
# procedure summary: In vitro inhibition of binding of 51Cr-labeled Jurkat cells to solid phase-bound CS-1 peptide
# Type: cell-based
# experimental parameters: Table 1; normalized IC50, standard peptide of SEQ ID NO:6 = 1
Positions of bridges follow the written chain, without caps; N, C: chain ends. Non-standard residues stand in square brackets, D forms with d. Residues, ends and D or L forms follow the SMILES beside them. *: point of attachment. Pen = CC(C)(S)[C@H](N)C(=O)O; PhAc = O=C(Cc1ccccc1)*
assay endpoint: Relative Potency

| molecule | result modifier | readout number |
| --- | --- | --- |
| NC(=O)[C@@H]1CSSC[C@H](NC(=O)Cc2ccccc2)C(=O)N[C@@H](CC(=O)O)C(=O)N[C@@H](Cc2ccccc2)C(=O)N1 [compound 7] (PhAc-CDFC-NH2; disulfide 1-4) | = | 954 |
| CC1(C)SSC[C@@H](C(N)=O)NC(=O)[C@H](Cc2ccccc2)NC(=O)[C@H](CC(=O)O)NC(=O)[C@H]1NC(=O)Cc1ccccc1 [compound 14] (PhAc-[Pen]DFC-NH2; disulfide 1-4) | = | 94 |
| NC(=O)[C@@H]1CCCN1C(=O)[C@@H]1CSSC[C@H](NC(=O)[C@@H](N)Cc2ccccc2)C(=O)N[C@@H](CC(=O)O)C(=O)N1 [compound 30] (H-FCDCP-NH2; disulfide 2-4) | < | 1 |

* * *

# system name: VLA-4/CS-1 (Homo sapiens, UniProt P05556+P13612)
# Construct: inflammatory cells that contain the VLA-4 receptor [Jurkat cells; host or cells: Jurkat (human T lymphoblastic line)
# procedure summary: In vitro inhibition of binding of 51Cr-labeled Jurkat cells to solid phase-bound CS-1 peptide
# Type: cell-based
# experimental parameters: Table 1; normalized IC50, standard peptide of SEQ ID NO:6 = 1
Positions of bridges follow the written chain, without caps; N, C: chain ends. Residues, ends and D or L forms follow the SMILES beside them.
assay endpoint: Relative Potency

| compound | result modifier | readout number |
| --- | --- | --- |
| CC(C)C[C@@H]1NC(=O)[C@H](Cc2ccccc2)NC(=O)[C@H](CCC(=O)O)NC(=O)[C@@H]2CCCN2C(=O)[C@@H](N)CSSC[C@@H](C(N)=O)NC(=O)[C@H](CO)NC(=O)[C@@H]2CCCN2C(=O)[C@H](Cc2ccccc2)NC(=O)[C@H](CC(=O)O)NC1=O [compound 19] (H-CPEFLDFPSC-NH2; disulfide 1-10) | = | 6 |
| O=C(O)C[C@@H]1NC(=O)[C@@H](NC(=O)Cc2ccccc2)CSCCNC(=O)[C@H](Cc2ccccc2)NC1=O | = | 16 |
| CC(C)C[C@@H]1NC(=O)[C@H](CCC(=O)O)NC(=O)[C@@H]2CCCN2C(=O)[C@@H](N)CSSC[C@@H](C(N)=O)NC(=O)[C@H](CO)NC(=O)[C@@H]2CCCN2C(=O)[C@H](Cc2ccccc2)NC(=O)[C@H](CC(=O)O)NC1=O [compound 33] (H-CPELDFPSC-NH2; disulfide 1-9) | = | 31 |
| CC(C)C[C@@H]1NC(=O)[C@H](Cc2ccccc2)NC(=O)[C@@H](N)CSSC[C@@H](C(N)=O)NC(=O)[C@H]([C@@H](C)O)NC(=O)[C@H](CO)NC(=O)[C@@H]2CCCN2C(=O)[C@H](Cc2ccccc2)NC(=O)[C@H](CC(=O)O)NC1=O [compound 15] (H-CFLDFPSTC-NH2; disulfide 1-9) | = | 81 |
| CC(=O)N[C@@H](Cc1ccccc1)C(=O)N[C@H]1CSSC[C@@H](C(=O)N2CCC[C@H]2C(N)=O)NC(=O)[C@H](CC(=O)O)NC1=O [compound 29] (Ac-FCDCP-NH2; disulfide 2-4) | = | 1 |
| CC(C)C[C@@H]1NC(=O)[C@H](Cc2ccccc2)NC(=O)[C@H](CCC(=O)O)NC(=O)[C@@H](N)CSSC[C@@H](C(N)=O)NC(=O)[C@@H]2CCCN2C(=O)[C@H](Cc2ccccc2)NC(=O)[C@H](CC(=O)O)NC1=O [compound 20] (H-CEFLDFPC-NH2; disulfide 1-8) | = | 19 |
| CC(C)C[C@H](N)C(=O)N[C@@H](CC(=O)O)C(=O)N[C@@H](Cc1ccccc1)C(N)=O [LDF--NH2] (H-Leu-Asp-Phe-NH2) | = | 0 |
| CC(C)C[C@@H]1NC(=O)[C@H](Cc2ccccc2)NC(=O)[C@H](CCC(=O)O)NC(=O)[C@@H]2CCCN2C(=O)[C@@H](N)CSSC[C@@H](C(N)=O)NC(=O)[C@@H]2CCCN2C(=O)[C@H](Cc2ccccc2)NC(=O)[C@H](CC(=O)O)NC1=O [compound 16] (H-CPEFLDFPC-NH2; disulfide 1-9) | = | 31 |
| NC(=O)[C@@H]1CSSC[C@H](NC(=O)[C@@H](N)Cc2ccccc2)C(=O)N[C@@H](CC(=O)O)C(=O)N[C@@H](Cc2ccccc2)C(=O)N1 [compound 25] (H-FCDFC-NH2; disulfide 2-5) | = | 3 |
| CC(=O)N[C@@H](Cc1ccccc1)C(=O)N[C@H]1CSSC[C@@H](C(N)=O)NC(=O)[C@H](Cc2ccccc2)NC(=O)[C@H](CC(=O)O)NC1=O [compound 17] (Ac-FCDFC-NH2; disulfide 2-5) | = | 53 |
| CC(=O)N[C@@H](Cc1ccccc1)C(=O)N[C@@H](CS)C(=O)N[C@@H](CC(=O)O)C(=O)N[C@@H](Cc1ccccc1)C(=O)N[C@@H](CS)C(N)=O [compound 18] (Ac-FCDFC-NH2) | = | 41 |
| CC(C)C[C@H](N)C(=O)N[C@@H](CC(=O)O)C(=O)N[C@H](C(N)=O)C(C)C [LDV--NH2, reference compound] (H-Leu-Asp-Val-NH2) | = | 0 |
| CC(C)C[C@@H]1NC(=O)[C@H](Cc2ccccc2)NC(=O)[C@H](CCC(=O)O)NC(=O)[C@@H](N)CSSC[C@@H](C(N)=O)NC(=O)[C@H]([C@@H](C)O)NC(=O)[C@H](CO)NC(=O)[C@@H]2CCCN2C(=O)[C@H](Cc2ccccc2)NC(=O)[C@H](CC(=O)O)NC1=O [compound 22] (H-CEFLDFPSTC-NH2; disulfide 1-10) | = | 9 |
| CC(C)C[C@@H]1NC(=O)[C@H](Cc2ccccc2)NC(=O)[C@H](CCC(=O)O)NC(=O)[C@@H](N)CSSC[C@@H](C(N)=O)NC(=O)[C@H](CO)NC(=O)[C@@H]2CCCN2C(=O)[C@H](Cc2ccccc2)NC(=O)[C@H](CC(=O)O)NC1=O [compound 24] (H-CEFLDFPSC-NH2; disulfide 1-9) | = | 6 |
| CC(C)C[C@@H]1NC(=O)[C@H](Cc2ccccc2)NC(=O)[C@H](CCC(=O)O)NC(=O)[C@@H]2CCCN2C(=O)CNC(=O)[C@@H](N)CSSC[C@@H](C(N)=O)NC(=O)[C@H](Cc2ccccc2)NC(=O)[C@H](CC(=O)O)NC1=O [compound 23] (H-CGPEFLDFC-NH2; disulfide 1-9) | = | 9 |
| CC(=O)N[C@@H](CC(C)C)C(=O)N[C@@H](CC(=O)O)C(=O)N[C@@H](Cc1ccccc1)C(N)=O [AcLDF--NH2] (Ac-Leu-Asp-Phe-NH2) | < | 1 |
